Reference source for all entries: PubChem BioAssay

Experiment: inhibitors of hydroxyurea-induced Chk1 phosphorylation, primary screen, imaging, HeLa, phospho-Chk1 nuclear intensity (AID 1187); further: test concentration not given here
Settings: hydroxyurea-induced phospho-Chk1 immunofluorescence imaging, higher = more signal
The source made the active and inactive calls. How the calls were made is not given here.
PROPERTY LABEL: z-score

QUERY: Entry COCCOC(=O)N1C(=O)[C@@]2(c3cc(C#CCC(C(=O)OC)C(=O)OC)ccc31)[C@H](C(N)=O)[C@H]1C(=O)O[C@H](c3ccccc3)[C@H](c3ccccc3)N1[C@@H]2c1ccc(OCCO)cc1 has what z-score?
RESULT: 0.0973 (inactive)

QUERY: Lookup C=CC[C@]1(C(=O)OC)N=C(c2ccc(OCCCO)cc2)O[C@H]1c1ccccc1N=[N+]=[N-]
RESULT: 0.059 (inactive)

QUERY: Lookup C=C(CC1([C@@H](NP(=O)(c2ccccc2)c2ccccc2)[C@H]2C[C@@H]2CCN(C(=O)OCC)S(=O)(=O)c2ccc(C)cc2)CC1)c1ccccc1
RESULT: -0.0171 (inactive)

QUERY: Lookup O=C1c2ccccc2[C@](Cc2ccccc2I)(C(=O)O)[C@H](c2ccc(CO)cc2)N1Cc1ccccc1
RESULT: -0.204 (inactive)

QUERY: Lookup C=CC[C@]1(C(=O)N(C)C)COC(c2ccc(OCCCO)cc2)=N1
RESULT: -0.146 (inactive)

QUERY: Lookup CC1(C)OC[C@@]23C=C(Br)[C@@H](C[C@H]12)[C@@]1(CO1)C3=O
RESULT: -0.682 (inactive)

QUERY: Lookup [N-]=[N+]=NCc1ccccc1C[C@@]1(C(=O)O)N=C(c2ccc(OCCCO)cc2)O[C@@H]1c1ccccc1CN=[N+]=[N-]
RESULT: -0.026 (inactive)

---

Give measured composite z-score for each item. Keep answers brief.
Experiment: binders of probe aFSTL3 on microarray, primary screen, stem cell growth factor project, biochemical, small-molecule microarray, fluorescence 635/667 (AID 1064);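 further: measures binding of the biotinylated anti-FSTL3 antibody to printed compounds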
Conditions: higher = more signal
Answer as a number with no unit attached.

QUERY: Entry CC(C)CNC(=O)[C@@H]1c2ccccc2C(=O)N(C2Cc3ccccc3C2)[C@H]1c1ccc(CO)cc1 has what composite z-score?
RESULT: 0.192

QUERY: Lookup [N-]=[N+]=NCc1ccccc1[C@@H]1OC(c2ccc(OCCCO)cc2)=N[C@]1(Cc1ccccc1)C(=O)NCc1ccccc1
RESULT: -0.158

QUERY: Lookup CN(C)C(=O)[C@]1(Cc2ccccc2)N=C(c2ccc(OCCCO)cc2)O[C@@H]1c1ccccc1
RESULT: -0.129

QUERY: Lookup O=C1O[C@@H](c2ccccc2)[C@@H](c2ccccc2)N2[C@@H](c3ccc(OCCO)cc3)[C@]3(C(=O)Nc4ccc(C#CCCO)cc43)[C@@H](C(=O)Nc3nc4ccccc4s3)[C@H]12
RESULT: 0.0758

QUERY: Lookup CO[C@H]1O[C@H](CO)[C@@H](OC(=O)Nc2ccc3c(c2)OCO3)[C@@H]2OC(=O)[C@@H](Cc3ccccc3)C/C=C/C[C@H](Cc3ccccc3)C(=O)O[C@@H]12
RESULT: -0.276

QUERY: Lookup CC1CC/C=C\[C@H]2OC34C=CCN(c5ccc(Cl)cc5)C(=O)[C@H]3N(CCCO)C(=O)[C@]4(C)C2C(=O)O1 (stereo not given in full)
RESULT: 0.316

QUERY: Lookup CC(C)(C)N1CC=CC23O[C@@H]4/C=C\CCCOC(=O)C4[C@H]2C(=O)N(CCCCCCO)[C@@H]3C1=O (stereo not given in full)
RESULT: 0.509

QUERY: Lookup CN(C)C(=O)[C@@]1(CCS(=O)(=O)c2ccccc2)N=C(c2ccc(OCCCO)cc2)O[C@H]1c1ccccc1N=[N+]=[N-]
RESULT: -0.35

QUERY: Lookup COC(=O)[C@@]1(Cc2ccc(OC)cc2)[C@H]2c3cc(C(=O)N(C)C)n(Cc4ccsc4Br)c3C[C@H]2CN1C(=O)c1ccccc1
RESULT: 0.254

QUERY: Lookup O=C1C2C=CC(C(O)c3cccc(O)c3)N(Nc3ccccc3F)C2C(=O)N1c1ccccc1 (stereo not given)
RESULT: 0.0355

QUERY: Lookup CN(C)CCCC[C@@H]1NC(=O)[C@@H]2C[C@H](C(=O)NCc3ccc(F)cc3)[C@H](c3ccc(O)cc3)N2C1=O
RESULT: 0.274

QUERY: Lookup COc1ccccc1CN1C(=O)c2ccccc2[C@](Cc2ccccc2I)(C(=O)NCCCN(C)C)[C@@H]1c1ccc(CO)cc1
RESULT: -0.967

QUERY: Lookup NCCCC[C@@H]1NC(=O)[C@H]2C[C@@H](C(=O)NCc3ccc(F)cc3)[C@@H](c3ccc(O)cc3)N2C1=O
RESULT: 1.85

QUERY: Lookup CN1C=C(C(=O)OCCS(C)(=O)=O)C(C(=O)OCCS(C)(=O)=O)=CC(CCCO)=CC1c1ccc(CN2CCCC2)cc1 (stereo not given)
RESULT: 0.316

QUERY: Lookup CC(=O)n1cc(C(O)C2C=CC3C(=O)N(c4ccccc4)C(=O)C3N2Nc2ccccc2F)c2ccccc21 (stereo not given)
RESULT: -0.146

---

Give measured z-score for each item. Keep answers brief.
Experiment: adipocyte viability effects, profiling panel, cell-based, 3T3-L1 adipocytes, calcein-AM fluorescence, 48 h, basal (AID 1163); further: test concentration not given here
Settings: 3T3-L1 adipocytes viability, higher = more signal
Answer as a number with no unit attached.

QUERY: Entry COCCOC(=O)N1C(=O)[C@@]2(c3cc(C#Cc4ccc(OC)cc4)ccc31)[C@H](c1ccc(OCCO)cc1)N1[C@H](c3ccccc3)[C@H](c3ccccc3)OC(=O)[C@H]1[C@@H]2C(=O)N1CCCCCCC1 has what z-score?
RESULT: 1.96

QUERY: Lookup C=CCOC(=O)[C@@H]1[C@H]2C(=O)O[C@H](c3ccccc3)[C@H](c3ccccc3)N2[C@H](c2ccc(OCCOC(=O)[C@H]3C[C@H]4C(=O)NCC(=O)N4[C@H]3c3ccc(O)cc3)cc2)[C@@]12C(=O)Nc1ccc(I)cc12
RESULT: -0.105

QUERY: Lookup CCN(CC)c1ccc(N2CC=CC34O[C@@H]5C=CCOC(=O)[C@@H]5[C@H]3C(=O)N(CCO)[C@@H]4C2=O)cc1 (stereo partly drawn)
RESULT: 0.273

QUERY: Lookup CCCC[C@H]1OB(O)C[C@H]2C1=C(C)C[C@H]1C(=O)C=CC(=O)[C@H]12
RESULT: -1.14

QUERY: Lookup CC(C)C(=C=CC[C@@H](O)c1ccc(OCCO)cc1)CCO
RESULT: 0.721

QUERY: Lookup COC(=O)c1ccc([C@H](NC(=O)c2ccccc2)[C@]2(C)C[C@H]2C2CCCCC2)cc1
RESULT: -1.92

QUERY: Lookup NC(=O)NCC#Cc1ccc2c(c1)[C@]1(C(=O)N2)[C@H](C(=O)Nc2nc3ccccc3s2)[C@H]2C(=O)O[C@H](c3ccccc3)[C@H](c3ccccc3)N2[C@@H]1c1ccc(OCCO)cc1
RESULT: 0.466

QUERY: Lookup COCCCN1C(=O)[C@@]2(Cc3ccccc31)c1ccccc1C(=O)N(Cc1ccccc1OC)[C@H]2c1ccc(CO)cc1
RESULT: 1.12

QUERY: Lookup Cc1ccc(S[C@]2(C(=O)NCCN3CCOCC3)CC(=O)N(C3CCCCC3)[C@@H]2c2ccc(CO)cc2I)cc1
RESULT: 0.0138

QUERY: Lookup CC(C)(C)OC(=O)CC[C@]1(C(N)=O)N=C(c2ccc(OCCCO)cc2)O[C@H]1c1ccccc1CN=[N+]=[N-]
RESULT: 0.434

QUERY: Lookup COCCOC(=O)N1C(=O)[C@@]2(c3ccccc31)[C@H](C(N)=O)[C@H]1C(=O)O[C@H](c3ccccc3)[C@H](c3ccccc3)N1[C@@H]2c1ccc(OCCO)cc1
RESULT: 0.452

QUERY: Lookup COCCOC(=O)N1C(=O)[C@@]2(c3ccccc31)[C@H](C(=O)N1CCCCCCC1)[C@H]1C(=O)O[C@H](c3ccccc3)[C@H](c3ccccc3)N1[C@@H]2c1ccc(O)cc1
RESULT: 0.688

QUERY: Lookup Cc1ccc(F)cc1S(=O)(=O)N[C@@H]1CCN(Cc2ccc3c(c2)OCO3)C1
RESULT: -0.447

QUERY: Lookup CCOC(=O)C1=C[C@@H](C(C)(C)C)N(S(=O)(=O)c2ccc(C)cc2)[C@H]1c1ccccc1Cl
RESULT: -1.16

QUERY: Lookup CCCCN1CC=CC23O[C@@H]4/C=C\CCC(C)OC(=O)C4[C@H]2C(=O)N(C(C)CO)[C@@H]3C1=O (stereo partly drawn)
RESULT: -0.708

QUERY: Lookup CCCCN1CC=CC23O[C@@H]4C=CCOC(=O)[C@@H]4[C@H]2C(=O)N(C(CO)C(C)C)[C@@H]3C1=O (stereo partly drawn)
RESULT: -1.13

QUERY: Lookup COc1ccc(NN2C(C(O)c3ccc(OC)cc3)C=CC3C(=O)N(C4CCCCC4)C(=O)C32)cc1 (stereo not drawn)
RESULT: -1.29

QUERY: Lookup C/C=C/CN(C(=O)C#Cc1ccccc1)[C@H](CO[Si](C)(C)C(C)(C)C)c1ccccc1
RESULT: 1.45

QUERY: Lookup COC(=O)C1(CC(C)C)C=C2C(=C(C(C)C)C(=O)C2C)CN1 (stereo not drawn)
RESULT: -0.404

QUERY: Lookup CC(C)(C)OC(=O)CC[C@]1(C(=O)N2CCOCC2)N=C(c2ccc(OCCCO)cc2)O[C@H]1c1ccccc1CN=[N+]=[N-]
RESULT: 0.0723

QUERY: Lookup C=C(CC1([C@@H](NP(=O)(c2ccccc2)c2ccccc2)[C@H]2C[C@@H]2CCN(C(=O)OCC)S(=O)(=O)c2ccc(C)cc2)CC1)c1ccccc1
RESULT: 1.2

QUERY: Lookup C=CCC(OC(C)=O)[C@@H]1[C@@H](N(Cc2cc3ccccc3o2)C(=O)Cc2ccc(OC)cc2)c2cc(OCCCO)ccc2N1C(=O)Cc1ccc(OC)cc1 (stereo partly drawn)
RESULT: 1.71

QUERY: Lookup COCCOC(=O)N1C(=O)[C@@]2(c3cc(C#CC4=CCCCC4)ccc31)[C@H](c1ccccc1OCCO)N1[C@H](c3ccccc3)[C@H](c3ccccc3)OC(=O)[C@H]1[C@@H]2C(N)=O
RESULT: 2.16

QUERY: Lookup C=CCC(OC(C)=O)[C@@H]1[C@@H](N(Cc2ccc(-c3ccccc3)cc2)C(=O)c2cccc3ccccc23)c2cc(OCCCO)ccc2N1C(=O)c1ccc2ccccc2c1 (stereo partly drawn)
RESULT: -0.114

QUERY: Lookup CC(C)C[C@@H]1NC(=O)[C@H]2C[C@@H](C(=O)NCCCCCCNC(=O)CS)[C@@H](c3ccc(O)cc3)N2C1=O
RESULT: 0.197

QUERY: Lookup COCCOC(=O)N1C(=O)[C@@]2(c3ccccc31)[C@H](c1ccc(OCCO)cc1)N1[C@H](c3ccccc3)[C@H](c3ccccc3)OC(=O)[C@H]1[C@@H]2C(=O)N1CCN(c2ncccn2)CC1
RESULT: 1.39

QUERY: Lookup C=C(C(=O)CC[C@@H](OC(C)=O)c1cccc(OCCO)c1)C(C)C
RESULT: 0.0938

QUERY: Lookup NC(=O)[C@@]1(CCS(=O)(=O)c2ccccc2)COC(c2ccc(OCCCO)cc2)=N1
RESULT: -0.519
